Species: Rattus norvegicus
TEST NAME: Open TG-GATES - Regimen: Daily Repeat
Assay type: toxicity, organism-based, Sprague-Dawley
Design: regimen Daily Repeat, gender Male, age 6 weeks
EXPERIMENTAL CONTEXT: in vivo, po, 300 mg/kg, […], tissue Blood, route gavage, dose level Middle, time 7 day
Reported Fbg values for the following compounds.
State the answer as a number, implicitly in mg/dL.

Which Fbg value is on record for O=C(O)c1cccnc1 ?
325.8

Which Fbg value is on record for O=C(N[C@H](CO)[C@H](O)c1ccc([N+](=O)[O-])cc1)C(Cl)Cl ?
324

Which Fbg value is on record for CCN1CCCC1CNC(=O)c1cc(S(N)(=O)=O)ccc1OC (centres undefined) [SULPIRIDE] ?
297.2

Which Fbg value is on record for CC(C)(S)[C@@H](N)C(=O)O ?
377.6

====

Species on record: Rattus norvegicus
TEST NAME: Open TG-GATES - Regimen: Daily Repeat
Assay type: toxicity, organism-based, Sprague-Dawley
Design: regimen Daily Repeat, gender Male, age 6 weeks
EXPERIMENTAL CONTEXT: in vivo, po, 300 mg/kg, […], tissue Plasma, route gavage, dose level Middle, time 14 day
OBSERVATION TYPE: RALB (g/dL)
State the answer as a number, implicitly in g/dL.

Record excerpt, results attached:
Which RALB value is on record for O=C(N[C@H](CO)[C@H](O)c1ccc([N+](=O)[O-])cc1)C(Cl)Cl ?
2.6

Which RALB value is on record for CCN1CCCC1CNC(=O)c1cc(S(N)(=O)=O)ccc1OC (centres undefined) [SULPIRIDE] ?
2.7

Which RALB value is on record for O=C(O)c1cccnc1 ?
3.1

Turning now to a further record.
Which RALB value is on record for CC(C)(S)[C@@H](N)C(=O)O ?
2.8

====

Species on record: Rattus norvegicus
TEST NAME: Open TG-GATES - Regimen: Single
Format: toxicity, organism-based, Sprague-Dawley
Parameters: regimen Single, gender Male, age 6 weeks
EXPERIMENTAL CONTEXT: in vivo, po, 0 mg/kg, 6 h, tissue Blood, route gavage, dose level Control
Reported Hb values for the following compounds.
State the answer as a number, implicitly in g/dL.

Which Hb value is on record for O=C(O)c1cccnc1 ?
13.6

Which Hb value is on record for CCc1oc2ccccc2c1C(=O)c1cc(I)c(O)c(I)c1 ?
13.8

***
Which Hb value is on record for O=C(N[C@H](CO)[C@H](O)c1ccc([N+](=O)[O-])cc1)C(Cl)Cl ?
13.3

Which Hb value is on record for CC(=N)S [THIOACETAMIDE] ?
13.1

Which Hb value is on record for CCC(C)(C)C(=O)O[C@H]1C[C@@H](C)C=C2C=C[C@H](C)[C@H](CC[C@@H]3C[C@@H](O)CC(=O)O3)[C@H]21 ?
13

Which Hb value is on record for C[C@]12CCC(=O)C=C1CC[C@@H]1[C@@H]2CC[C@@]2(C)[C@H]1CC[C@]2(C)O ?
13.1

Which Hb value is on record for CC(C)(S)[C@@H](N)C(=O)O ?
13.3

Which Hb value is on record for CN1C(=O)OC(C)(C)C1=O ?
13.1

Which Hb value is on record for CCN1CCCC1CNC(=O)c1cc(S(N)(=O)=O)ccc1OC (centres undefined) [SULPIRIDE] ?
13.3
